# method: Far-UV circular dichroism, helical content of T-domain peptides
# Format: physicochemical
# testConditions: from helical content by far-UV CD, DichroWeb; tags assumed unordered
# no. of residues, helix annotations
// note: answer is a bare numeric in residues

Example cases with answers are listed next.
INSERT INTO results (molecule, endpointlabel, unitstring, recordednumber) VALUES
  ('41–120 ^b: colicin E1 T-domain peptide, residues 41–120 (peptide, UniProt P02978 41-120, looked up, fragment) GGSKSESSAAIHATAKWSTAQLKKTQAEQAARAKAAAEAQAKAKANRDALTQRLKDIVNEALRHNASRTPSATELAHANN', 'no. of residues, helix', 'residues', 29),
  ('1–81 ^c: colicin E1 T-domain peptide, residues 1–81 (peptide, UniProt P02978 1-81, looked up, fragment) METAVAYYKDGVPYDDKGQVIITLLNGTPDGSGSGGGGGKGGSKSESSAAIHATAKWSTAQLKKTQAEQAARAKAAAEAQA', 'no. of residues, helix', 'residues', 13);

Turning now to a further molecule:
Prompt: Returns the measured no. of residues, helix for the input molecule. Input: 1–100 ^b: colicin E1 T-domain peptide, residues 1–100 (peptide) METAVAYYKDGVPYDDKGQVIITLLNGTPDGSGSGGGGGKGGSKSESSAAIHATAKWSTAQLKKTQAEQAARAKAAAEAQAKAKANRDALTQRLKDIVNE
Completion: 30
